- target_or_system: mouse 11-beta HSD1 (Mus musculus, UniProt P50172)
- Sequence (P50172 whole entry): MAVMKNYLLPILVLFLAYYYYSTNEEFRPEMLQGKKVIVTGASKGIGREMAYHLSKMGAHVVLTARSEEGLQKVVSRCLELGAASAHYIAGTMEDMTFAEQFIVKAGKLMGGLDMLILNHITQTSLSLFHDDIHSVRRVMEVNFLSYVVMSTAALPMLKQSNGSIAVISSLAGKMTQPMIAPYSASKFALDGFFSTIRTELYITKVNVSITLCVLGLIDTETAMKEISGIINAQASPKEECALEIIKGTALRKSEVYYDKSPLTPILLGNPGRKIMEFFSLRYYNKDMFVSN
- procedure_summary: 11 beta-HSD1 enzyme assay, mice liver microsome fractions
outcome_measure: pIC50
The value called pIC50 is obtained by taking minus log10 of the concentration in mol/L.

Past entries and their recorded results:
{"compound": "O=C(NC1CCCC1)NC1C2CC3CC(C2)CC1C3 (stereo not shown) [Ex 1-39, 1-Adamantan-2-yl-3-cyclopentyl-urea]", "target_or_system": "mouse 11-beta HSD1 (Mus musculus, UniProt P50172)", "outcome_measure": "pIC50", "obs_value": 6.45}
{"compound": "O=C(NCc1ccco1)NC1C2CC3CC(C2)CC1C3 (stereo not shown) [Ex 1-44, 1-Adamantan-2-yl-3-furan-2-ylmethyl-urea]", "target_or_system": "mouse 11-beta HSD1 (Mus musculus, UniProt P50172)", "outcome_measure": "pIC50", "obs_value": 5.46}
{"compound": "COc1ccc(NC(=O)NC2C3CC4CC(C3)CC2C4)c(C)c1 (stereo not shown) [Ex 1]", "target_or_system": "mouse 11-beta HSD1 (Mus musculus, UniProt P50172)", "outcome_measure": "pIC50", "obs_value": 7.01}

Let us examine a further case.
In plain terms, O=C(NCCc1ccccc1)NC1C2CC3CC(C2)CC1C3 (stereo not shown) [Ex 1-12, 1-Adamantan-2-yl-3-phenethyl-urea] has a documented pIC50 of 6.36

----------
This section lists IC50 readings for rat 11-beta HSD1 (Rattus norvegicus, UniProt P16232).
Write down the numeric answer in nM and omit the unit.

Take a look at these entries with their results.
{"compound": "O=C(NC1CCCC1)NC1C2CC3CC(C2)CC1C3 (stereo not drawn) [Ex 1-39, 1-Adamantan-2-yl-3-cyclopentyl-urea]", "target_or_system": "rat 11-beta HSD1 (Rattus norvegicus, UniProt P16232)", "IC50 / nM": 47}
{"compound": "O=C(NC1C2CC3CC(C2)CC1C3)N1CCCC1 (stereo not drawn) [Ex 3-3]", "target_or_system": "rat 11-beta HSD1 (Rattus norvegicus, UniProt P16232)", "IC50 / nM": 1320}

Here's the next entry for you.
Reported rat 11-beta HSD1 (Rattus norvegicus, UniProt P16232) IC50 for item COc1ccc(NC(=O)NC2C3CC4CC(C3)CC2C4)c(C)c1 (stereo not drawn) [Ex 1] was 190

----------
- target_or_system: human 11-beta HSD1 (Homo sapiens)
- Construct: made in house; host or cells: E. coli
- Sequence (P28845 whole entry): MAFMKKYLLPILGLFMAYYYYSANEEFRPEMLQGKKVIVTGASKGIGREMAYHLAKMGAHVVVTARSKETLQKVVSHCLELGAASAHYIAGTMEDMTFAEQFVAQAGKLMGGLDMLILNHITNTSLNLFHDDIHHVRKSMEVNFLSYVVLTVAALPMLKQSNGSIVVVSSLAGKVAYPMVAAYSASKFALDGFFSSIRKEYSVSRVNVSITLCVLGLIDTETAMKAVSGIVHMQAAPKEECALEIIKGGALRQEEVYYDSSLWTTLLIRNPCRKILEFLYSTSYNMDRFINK
- procedure_summary: 11 beta-HSD1 enzyme assay (HTRF cortisol), human recombinant enzyme
- Type: biochemical
- condition_info: recombinant enzyme from E. coli; read-out: Inhibition of human 11-beta HSD1 IC50
pIC50: −log10 of the molar value.
The threshold is inclusive: pIC50 of exactly 7 counts as t; values below receive f.

Answered cases to consult:
{"compound": "O=C(Nc1ccc2ccccc2c1)NC1C2CC3CC(C2)CC1C3 (centres unmarked) [Ex 1-23, 1-Adamantan-2-yl-3-naphthalen-2-yl-urea]", "label_value": "t"}
{"compound": "Cc1cccc(CNC(=O)NC2C3CC4CC(C3)CC2C4)c1 (centres unmarked) [Ex 1-34]", "label_value": "f"}
{"compound": "O=C(Nc1ccccc1C(F)(F)F)NC1C2CC3CC(C2)CC1C3 (centres unmarked) [Ex 1-3]", "label_value": "f"}
{"compound": "O=C(NCCc1cccs1)NC1C2CC3CC(C2)CC1C3 (centres unmarked) [Ex 1-16]", "label_value": "t"}
{"compound": "O=C(NC1C2CC3CC(C2)CC1C3)N1CCCC1 (centres unmarked) [Ex 3-3]", "label_value": "f"}
{"compound": "COc1cc(NC(=O)NC2C3CC4CC(C3)CC2C4)cc(OC)c1 (centres unmarked) [Ex 1-7]", "label_value": "f"}
{"compound": "C[C@@H](NC(=O)NC1C2CC3CC(C2)CC1C3)c1ccccc1 (some centres unmarked) [Ex 1-61]", "label_value": "t"}
{"compound": "O=C(NC1CCCC1)NC1C2CC3CC(C2)CC1C3 (centres unmarked) [Ex 1-39, 1-Adamantan-2-yl-3-cyclopentyl-urea]", "label_value": "f"}

In: Item COc1ccc(NC(=O)NC2C3CC4CC(C3)CC2C4)c(C)c1 (centres unmarked) [Ex 1] with pIC50 of 7 or above?
Out: t

In: Is reported pIC50 greater than or equal to 7 here: O=C(NCCc1ccccc1)NC1C2CC3CC(C2)CC1C3 (centres unmarked) [Ex 1-12, 1-Adamantan-2-yl-3-phenethyl-urea]
Out: f

In: Check this compound for pIC50 at or above 7: O=C(Nc1cc(Cl)nc(Cl)c1)NC1C2CC3CC(C2)CC1C3 (centres unmarked) [Ex 1-26]
Out: f

In: Please check the record O=C(NCc1ccco1)NC1C2CC3CC(C2)CC1C3 (centres unmarked) [Ex 1-44, 1-Adamantan-2-yl-3-furan-2-ylmethyl-urea] and state if its pIC50 is at or above 7.
Out: f

In: Exam item: decide whether the reported pIC50 for Cc1c(NC(=O)NC2C3CC4CC(C3)CC2C4)cccc1C(=O)O (centres unmarked) [Ex 6] is at least 7.
Out: f

Taken from patent US8466200B2.
